Target: E protein of DENV-2 Indonesian isolate (cosmopolitan genotype, Surabaya) (Dengue virus type 2, cosmopolitan …, UniProt P14340, strain)
Experiment: cell-based or functional assay
Experimental endpoint: NT50, neutralization of DENV-2 (Indonesian isolate), Vero cells (µg/mL)
# number only, unit µg/mL dropped from output

Use the examples below as a reference point.
Binder	Assay result
HuMAb 1C3 (antibody, V domains shown) VH: EVQLVESGGGLVQPGGSLRLSCAASGFTFSDHYIDWVRQAPGKGLEWVGRTSNRANSYTSEYAASVKGRFTISRDDSKNSVYLQMNSLKTEDTAVYFCARDSGWYDFWGQGTLVTVSS VL: ALTQPASVSGSPGQSITISCTGPSRDLGANNYVSWYQQHPGKAPKLLIYDINNRPSGVPDRFSGSRSGNTASLTISGLQADDEADYYCSSYTRSRTRVFGGGTKLTVL	0.12
HuMAb 1E5 (antibody, V domains shown) VH: QVQLVESGGGVVQPGKSLRVSCAASGFIFSSYGMHWVRQAPGKGLEWVAVISYDGRYKFYADSVKGRFTISRDDSRSTLYLQMNSLRSDDTAVYYCARGRPYIGGDYEYDYFYGMDVWGQGTTVIVSS VL: IVMTQTPLSSPVTLGQPASISCRSSQSLVHSDGNTYLNWLQQRPGQPPRLLIYNISNRFSGVPDRFSGSGAGTDFTLKINRVEAEDVGVYYCMQATHFPYSFGQGTKLEIK	0.69
HuMAb 3E1 (antibody, V domains shown) VH: EVQLLESGGGLVQPGGSLRLSCAASGFTFSRFAMTWVRQAPGKGLEWVSAISGSGGSTFYADSVKGRFTISRDNSKNTLYLQMNSLRAEDTAVYYCVSLGDAWLLYWTPWGQGSLVTVSS VL: DVVMTQSPLSLPVTLGQPASISCRSSQSLVHGDGNTYLNWFQQRPGQSPRRLIYNVSNRDPGVPDRFSGSGSGTDFTLKISWVEAEDVGVYYCMQATHLPPTFGGGTKVEI	0.05

Now look at this one.
Requested field: NT50, neutralization of DENV-2 (Indonesian isolate), Vero cells. Item: HuMAb 3G9 (antibody, V domains shown, also called 3G9-original; 3G9-Original) VH: EVQLLDSGGGLVQPGGSLRLSCAASGFTFNDYAMTWVRQAPGKGLEWVSTISGSGDGTYYQESLKGRFTISRDNSKNTLYLLMSSLRVDDTAVYYCAKLFGVGDSDGYWGQGTLVTVSS VL: QAVVTQEPSLTVSPGGTVTLTCGSSTGAVTSDHYFYWFQQKPGQAPRTLIYQTTNKHPWTPARFSGSLLGGKAALTLSGAQPEDEAEYYCLLSYGGGRPVFGGGTKLTVL
0.02
